# assay_name: Binding affinity to biotinylated hairpin DNA (unknown origin) assessed as binding constant by SPR analysis

>  <substance_smiles>
CN1CC(=O)N2CCCC[C@H]2C(=O)NC[C@@H](NC(=O)c2nc3ccccc3cc2O)C(=O)N2CCCC[C@H]2C(=O)NCC(=O)N(C)CC(=O)N2CCCC[C@H]2C(=O)NC[C@@H](NC(=O)c2nc3ccccc3cc2O)C(=O)N2CCCC[C@H]2C(=O)NCC1=O

>  <Kd, nM>
500

$$$$
>  <substance_smiles>
CC(C)[C@H]1C(=O)OC[C@@H](NC(=O)c2nc3ccccc3cc2O)C(=O)N2CCCC[C@H]2C(=O)NCC(=O)N(C)CC(=O)N(C)[C@@H](C(C)C)C(=O)OC[C@@H](NC(=O)c2nc3ccccc3cc2O)C(=O)N2CCCC[C@H]2C(=O)NCC(=O)N(C)CC(=O)N1C

>  <Kd, nM>
360

$$$$
>  <substance_smiles>
CC(C)[C@H]1C(=O)NC[C@@H](NC(=O)c2nc3ccccc3cc2O)C(=O)N2CCCC[C@H]2C(=O)NCC(=O)N(C)CC(=O)N2CCCC[C@H]2C(=O)NC[C@@H](NC(=O)c2nc3ccccc3cc2O)C(=O)N2CCCC[C@H]2C(=O)NCC(=O)N(C)CC(=O)N1C

>  <Kd, nM>
570

$$$$
